- Procedure Summary: log P by HPLC
- Assay type: physicochemical
- Condition Details: HPLC, gradient method, acetonitrile/0.1% aqueous phosphoric acid; EEC directive 79/831 Annex V. A8
Assay Readout: logP
Just the number, please.

May I ask what logP has been recorded for CC(Nc1c(-c2ccc(F)cc2Cl)c(Cl)nc2nc(C3CC3)nn12)C(F)(F)F (single isomer, unassigned) [compound 768] ?
3.77

May I ask what logP has been recorded for Cc1nc2nc(Cl)c(-c3c(F)cc(F)cc3F)c(NC3CCCC3)n2n1 ?
3.23

May I ask what logP has been recorded for Fc1ccc(-c2c(Cl)nc3nc(C4CC4)nn3c2NCCC(F)(F)F)c(F)c1 ?
3.25

May I ask what logP has been recorded for Cc1nc2nc(Cl)c(-c3ccc(F)cc3Cl)c(NC(C)C(F)(F)F)n2n1 (racemic) ?
3.19

May I ask what logP has been recorded for Fc1cccc(F)c1-c1c(Cl)nc2nc(C3CC3)nn2c1N1OC2CCC1C2 (stereo not drawn) ?
3.23

May I ask what logP has been recorded for CC(Nc1c(-c2ccc(Cl)cc2Cl)c(Cl)nc2nc(C3CC3)nn12)C(F)(F)F (single isomer, unassigned) [compound 711] ?
4.19

May I ask what logP has been recorded for CC(C)CNc1c(-c2ccc(F)cc2F)c(Cl)nc2nc(C(F)(F)F)nn12 ?
4.03

May I ask what logP has been recorded for Fc1ccc(-c2c(Cl)nc3nc(C4CC4)nn3c2NCC(F)(F)F)c(F)c1 ?
3.17

May I ask what logP has been recorded for Cc1nc2nc(Cl)c(-c3c(F)cccc3F)c(NC3CC(C(F)(F)F)CC(C(F)(F)F)C3)n2n1 (stereo not drawn) ?
3.62

May I ask what logP has been recorded for CNc1c(-c2c(F)cc(F)cc2F)c(Cl)nc2nc(C)nn12 ?
2.12

May I ask what logP has been recorded for CCN(CCN(C)C)c1c(-c2ccc(F)cc2F)c(Cl)nc2nc(C3CC3)nn12 ?
1.65

May I ask what logP has been recorded for Fc1ccc(-c2c(Cl)nc3nc(C4CC4)nn3c2NCC(F)(F)F)c(Cl)c1 ?
3.37

May I ask what logP has been recorded for Cc1nc2nc(Cl)c(-c3c(F)cc(F)cc3F)c(N3CCSCC3)n2n1 ?
3.09

May I ask what logP has been recorded for Cc1nc2nc(Cl)c(-c3c(F)cc(F)cc3F)c(N3CCCC(O)C3)n2n1 (stereo not drawn) ?
2.15

May I ask what logP has been recorded for C#CCN(C)c1c(-c2ccc(F)cc2F)c(Cl)nc2nc(C(F)(F)F)nn12 ?
3.65

May I ask what logP has been recorded for Cc1nc2nc(Cl)c(-c3ccccc3Cl)c(NC3CC3)n2n1 ?
2.54

May I ask what logP has been recorded for CN(Cc1ccco1)c1c(-c2ccc(F)cc2F)c(Cl)nc2nc(C(F)(F)F)nn12 ?
4.11

May I ask what logP has been recorded for C=C(C)CNc1c(-c2ccc(F)cc2F)c(Cl)nc2nc(C3CC3)nn12 ?
3.22

May I ask what logP has been recorded for COC(=O)C1CCCCN1c1c(-c2ccc(F)cc2F)c(Cl)nc2nc(C3CC3)nn12 (stereo not drawn) ?
3.92

May I ask what logP has been recorded for Cc1nc2nc(Cl)c(-c3ccc(F)cc3F)c(NC3CCCCC3)n2n1 ?
3.46

May I ask what logP has been recorded for Cc1nc2nc(Cl)c(-c3c(F)cccc3F)c(N3CCCC3)n2n1 ?
2.61

May I ask what logP has been recorded for CC(C)CNc1c(-c2ccc(F)cc2F)c(Cl)nc2nc(C3CC3)nn12 ?
3.38

May I ask what logP has been recorded for CC(C)=NN(CC(C)C)c1c(-c2c(F)cccc2F)c(Cl)nc2nc(C3CC3)nn12 ?
4.21

May I ask what logP has been recorded for C#CCN(C)c1c(-c2ccccc2Cl)c(Cl)nc2nc(C)nn12 ?
2.75

May I ask what logP has been recorded for CC(C)Nc1c(-c2c(F)cc(F)cc2F)c(Cl)nc2nc(C(F)(F)F)nn12 ?
3.8

May I ask what logP has been recorded for CN(Cc1ccco1)c1c(-c2ccc(F)cc2F)c(Cl)nc2nc(C3CC3)nn12 ?
3.63

May I ask what logP has been recorded for CC(Nc1c(-c2ccc(F)cc2Cl)c(Cl)nc2nc(C3CC3)nn12)C(F)(F)F (racemic) [compound 747] ?
3.73

May I ask what logP has been recorded for Fc1cccc(F)c1-c1c(Cl)nc2nc(C3CC3)nn2c1N1CCCC1 ?
3.25

May I ask what logP has been recorded for CC(C)C(C)Nc1c(-c2ccc(F)cc2Cl)c(Cl)nc2nc(C3CC3)nn12 (racemic) [compound 587] ?
4.25

May I ask what logP has been recorded for C=C(C)CNc1c(-c2c(F)cccc2F)c(Cl)nc2nc(C)nn12 ?
2.56

May I ask what logP has been recorded for CCCCN(CC)c1c(-c2ccccc2Cl)c(Cl)nc2nc(C)nn12 [compound 241] ?
4.1

May I ask what logP has been recorded for Fc1ccc(-c2c(Cl)nc3nc(C4CC4)nn3c2N2CCC(Br)CC2)c(F)c1 ?
4.08

May I ask what logP has been recorded for CC(Nc1c(-c2ccc(F)cc2Cl)c(Cl)nc2nc(C3CC3)nn12)C(F)(F)F (single isomer, unassigned) [compound 767] ?
3.73
